Data origin: patent US8481544B2

// reported melting point per item

# molecule, melting point
measured = [
    ("CCNC(=O)Nc1nc2cc(-c3cccnc3)cc(-c3ccc[nH]3)c2s1 [Example 90]", "220 °C"),
    ("CCNC(=O)Nc1nc2cc(-c3cccnc3)cc(-c3cccc(OC)n3)c2s1 [Example 167]", "300.1 °C"),
    ("CCOC(=O)Nc1nc2cc(-c3cccnc3)cc(-c3ccccn3)c2s1 [Example 174]", "235 °C"),
    ("CCNC(=O)Nc1nc2cc(-c3cccnc3)cc(-c3cccc(C(F)(F)F)n3)c2s1 [Example 89]", "256.7 °C"),
    ("CCNC(=O)Nc1nc2cc(-c3cccnc3)cc(-c3ccc(C)cn3)c2s1 [Example 175]", "231 °C"),
    ("CCNC(=O)Nc1nc2cc(-c3cccnc3)cc(Br)c2s1 [Example 3]", "345 °C"),
    ("CCNC(=O)Nc1nc2cc(-c3cccnc3)cc(-c3cccc(Cl)n3)c2s1 [Example 88]", "249.9 °C"),
]
